Data credit: patent US5567693A

# Test system: Human Tumor cell lines
# experiment-notes: Antiproliferative activity in the panel of human tumor cell lines
# Assay type: cell-based
# conditions: Homo sapiens; average over the 6 tumor cell lines
Counter-ions that a name gives are not always drawn.
measured-quantity: IC50 (µg/mL)
Use µg/mL as the unit, but write only the number.

Task item: Item CNCC(=O)Nc1c(Cl)cc2c(c1O)C(=O)C1=C(O)[C@]3(O)C(=O)C(C(N)=O)=C(O)[C@@H](N(C)C)C3CC1C2 (stereo partly drawn) [Example 7, dihydrochloride] : provide IC50
Reply: 4.3

Further cases:
Task item: Please give the documented IC50 of CCC(C(=O)Nc1c(Cl)cc2c(c1O)C(=O)C1=C(O)[C@]3(O)C(=O)C(C(N)=O)=C(O)[C@@H](N(C)C)C3CC1C2)N(C)C (stereo partly drawn) [Example 18, dihydrochloride]
Reply: 4.8

Task item: Give the reported value of IC50 for this record: CN(C)CC(=O)Nc1c(Cl)cc2c(c1O)C(=O)C1=C(O)[C@]3(O)C(=O)C(C(N)=O)=C(O)[C@@H](N(C)C)C3CC1C2 (stereo partly drawn)
Reply: 1.9

Task item: Retrieve IC50 measured for CN(C)[C@@H]1C(O)=C(C(N)=O)C(=O)[C@@]2(O)C(O)=C3C(=O)c4c(cc(Cl)c(NC(=O)CN5CCCCC5)c4O)CC3CC12 (stereo partly drawn) [Example 10, dihydrochloride] and print it.
Reply: 0.6

Task item: Using known records, supply IC50 for CN(C)[C@@H]1C(O)=C(C(N)=O)C(=O)[C@@]2(O)C(O)=C3C(=O)c4c(cc(Cl)c(NC(=O)CNCC5CC5)c4O)CC3CC12 (stereo partly drawn) [Example 8, dihydrochloride]
Reply: 2.45

Task item: Return IC50 for the following compound: CC(C(=O)Nc1c(Cl)cc2c(c1O)C(=O)C1=C(O)[C@]3(O)C(=O)C(C(N)=O)=C(O)[C@@H](N(C)C)C3CC1C2)N1CCCC1 (stereo partly drawn) [Example 13, dihydrochloride]
Reply: 1.3
